assay: Pharmacokinetics after single oral administration of the SaTSS standardized fraction (plasma, HPLC, PKSolver); type: in vivo, ICR mice; details: ICR, mouse, plasma; oral single dose 400 mg/kg SaTSS fraction, 20 min, n = 10
readout: concentration at 20 min (ng/mL)
Give the number; ng/mL is assumed, so skip it.

stdin: Given `COc1c(C)cc2c(C(C)C)cc(C(=O)O)c(O)c2c1O` , respond with its concentration at 20 min.
stdout: 2770

----------
assay: Pharmacokinetics after single intravenous administration of the SaTSS standardized fraction (plasma, HPLC, PKSolver); assay type: in vivo, ICR mice; conditions: ICR, mouse, plasma; intravenous single dose 400 mg/kg SaTES fraction, 60 min, n = 3
readout: concentration at 60 min (ng/mL)
Give the number; ng/mL is assumed, so skip it.

stdin: Given `COc1c(C)cc2c(C(C)C)cc(C(=O)O)c(O)c2c1O` , respond with its concentration at 60 min.
stdout: 3810

----------
assay: Pharmacokinetics after single oral administration of the SaTSS standardized fraction (plasma, HPLC, PKSolver); assay type: in vivo, ICR mice; conditions: ICR, mouse, plasma, po, 400 mg/kg, oral 400 mg/kg SaTSS fraction, two-compartment model; read-out: MRT (mean residence time) (converted)
readout: MRT (min)
Give the number; min is assumed, so skip it.

stdin: Given COc1c(C)cc2c(C(C)C)cc(C(=O)O)c(O)c2c1O [Sphaeralcic acid, sphaeralcic acid] , respond with its MRT.
stdout: 40.2

----------
experiment: Pharmacokinetics after single intravenous administration of the SaTSS standardized fraction (plasma, HPLC, PKSolver); format: in vivo, ICR mice; settings: ICR, mouse, plasma, iv, 400 mg/kg, intravenous 400 mg/kg SaTES fraction, Two-Compartment Model
readout: clearance (mL/min/kg)
Give the number; mL/min/kg is assumed, so skip it.

stdin: Given COc1c(C)cc2c(C(C)C)cc(C(=O)O)c(O)c2c1O [Sphaeralcic acid, sphaeralcic acid] , respond with its clearance.
stdout: 28

----------
experiment: Pharmacokinetics after single oral administration of the SaTSS standardized fraction (plasma, HPLC, PKSolver); format: in vivo, ICR mice; conditions: ICR, mouse, plasma, po, 400 mg/kg, oral 400 mg/kg SaTSS fraction, two-compartment model
readout: AUC(0-inf) (ng·h/mL)
Give the number; ng·h/mL is assumed, so skip it.

stdin: Given COc1c(C)cc2c(C(C)C)cc(C(=O)O)c(O)c2c1O [Sphaeralcic acid, sphaeralcic acid] , respond with its AUC(0-inf).
stdout: 3470

----------
experiment: Pharmacokinetics after single intravenous administration of the SaTSS standardized fraction (plasma, HPLC, PKSolver); type: in vivo, ICR mice; conditions: ICR, mouse, plasma, iv, 400 mg/kg, intravenous 400 mg/kg SaTES fraction, Two-Compartment Model; read-out: AUC0-60 (converted)
readout: AUC(0-t)

stdin: Given `COc1c(C)cc2c(C(C)C)cc(C(=O)O)c(O)c2c1O` , respond with its AUC(0-t).
stdout: 17.7 µg·h/mL

----------
assay: Pharmacokinetics after single oral administration of the SaTSS standardized fraction (plasma, HPLC, PKSolver); assay type: in vivo, ICR mice; conditions: ICR, mouse, plasma; oral single dose 400 mg/kg SaTSS fraction, 1.3 min, n = 10
readout: concentration at 1.3 min

stdin: Given COc1c(C)cc2c(C(C)C)cc(C(=O)O)c(O)c2c1O [Sphaeralcic acid, sphaeralcic acid] , respond with its concentration at 1.3 min.
stdout: 5040 ng/mL

----------
experiment: Pharmacokinetics after single oral administration of the SaTSS standardized fraction (plasma, HPLC, PKSolver); format: in vivo, ICR mice; details: ICR, mouse, plasma; oral single dose 400 mg/kg SaTSS fraction, 40 min, n = 10
readout: concentration at 40 min (ng/mL)
Give the number; ng/mL is assumed, so skip it.

stdin: Given `COc1c(C)cc2c(C(C)C)cc(C(=O)O)c(O)c2c1O` , respond with its concentration at 40 min.
stdout: 1380

----------
assay: Pharmacokinetics after single intravenous administration of the SaTSS standardized fraction (plasma, HPLC, PKSolver); format: in vivo, ICR mice; conditions: ICR, mouse, plasma, iv, 400 mg/kg, intravenous 400 mg/kg SaTES fraction, Two-Compartment Model
readout: AUC(0-inf) (ng·h/mL)
Give the number; ng·h/mL is assumed, so skip it.

stdin: Given `COc1c(C)cc2c(C(C)C)cc(C(=O)O)c(O)c2c1O` , respond with its AUC(0-inf).
stdout: 20400

----------
experiment: Pharmacokinetics after single intravenous administration of the SaTSS standardized fraction (plasma, HPLC, PKSolver); type: in vivo, ICR mice; conditions: ICR, mouse, plasma, iv, 400 mg/kg, intravenous 400 mg/kg SaTES fraction, One-Compartment Model; read-out: C0
readout: C0

stdin: Given `COc1c(C)cc2c(C(C)C)cc(C(=O)O)c(O)c2c1O` , respond with its C0.
stdout: 41700 ng/mL

----------
experiment: Pharmacokinetics after single intravenous administration of the SaTSS standardized fraction (plasma, HPLC, PKSolver); format: in vivo, ICR mice; details: ICR, mouse, plasma; intravenous single dose 400 mg/kg SaTES fraction, 20 min, n = 3
readout: concentration at 20 min (ng/mL)
Give the number; ng/mL is assumed, so skip it.

stdin: Given COc1c(C)cc2c(C(C)C)cc(C(=O)O)c(O)c2c1O [Sphaeralcic acid, sphaeralcic acid] , respond with its concentration at 20 min.
stdout: 21200

----------
test: Pharmacokinetics after single oral administration of the SaTSS standardized fraction (plasma, HPLC, PKSolver); type: in vivo, ICR mice; conditions: ICR, mouse, plasma, po, 400 mg/kg, oral 400 mg/kg SaTSS fraction, two-compartment model; read-out: Cmax
readout: Cmax
Give me the value, and tack the unit on after it.

stdin: Given COc1c(C)cc2c(C(C)C)cc(C(=O)O)c(O)c2c1O [Sphaeralcic acid, sphaeralcic acid] , respond with its Cmax.
stdout: 10400 ng/mL

----------
test: Pharmacokinetics after single intravenous administration of the SaTSS standardized fraction (plasma, HPLC, PKSolver); type: in vivo, ICR mice; settings: ICR, mouse, plasma, iv, 400 mg/kg, intravenous 400 mg/kg SaTES fraction, Two-Compartment Model; read-out: MRT (converted)
readout: MRT (min)
Give the number; min is assumed, so skip it.

stdin: Given `COc1c(C)cc2c(C(C)C)cc(C(=O)O)c(O)c2c1O` , respond with its MRT.
stdout: 29.3

----------
experiment: Pharmacokinetics after single oral administration of the SaTSS standardized fraction (plasma, HPLC, PKSolver); format: in vivo, ICR mice; settings: ICR, mouse, plasma, po, 400 mg/kg, oral 400 mg/kg SaTSS fraction, two-compartment model; read-out: AUC 0→240 (converted)
readout: AUC(0-t)

stdin: Given `COc1c(C)cc2c(C(C)C)cc(C(=O)O)c(O)c2c1O` , respond with its AUC(0-t).
stdout: 2900 ng·h/mL

----------
experiment: Pharmacokinetics after single intravenous administration of the SaTSS standardized fraction (plasma, HPLC, PKSolver); format: in vivo, ICR mice; conditions: ICR, mouse, plasma, iv, 400 mg/kg, intravenous 400 mg/kg SaTES fraction, One-Compartment Model
readout: clearance (mL/min/kg)
Give the number; mL/min/kg is assumed, so skip it.

stdin: Given `COc1c(C)cc2c(C(C)C)cc(C(=O)O)c(O)c2c1O` , respond with its clearance.
stdout: 27

----------
assay: Pharmacokinetics after single oral administration of the SaTSS standardized fraction (plasma, HPLC, PKSolver); format: in vivo, ICR mice; details: ICR, mouse, plasma, po, 400 mg/kg, oral 400 mg/kg SaTSS fraction, two-compartment model; read-out: CL/F (apparent clearance related to bioavailability)
readout: CL/F (L/h/kg)
Give the number; L/h/kg is assumed, so skip it.

stdin: Given `COc1c(C)cc2c(C(C)C)cc(C(=O)O)c(O)c2c1O` , respond with its CL/F.
stdout: 10.2

----------
Assay: Pharmacokinetics after single intravenous administration of the SaTSS standardized fraction (plasma, HPLC, PKSolver)
Assay type: in vivo, ICR mice
Details: ICR, mouse, plasma; intravenous single dose 400 mg/kg SaTES fraction, 10 min, n = 3
Method: Analyses of HPLC were carried out in a Waters system (2695 Separation module) coupled to a diode array detector (2996) with a 190–600-nm detection range and operated by the Manager Millennium software system (Empower 1; Waters Corporation, Mexico City, Mexico). Separations were performed in a Spherisorb-ODS RP-18 column (250 × 4.6 mm, 5 µm; Waters Corporation, Mexico) employing a constant temperature of 25 °C during the analyses. […]
readout: concentration at 10 min (ng/mL)
Give the number; ng/mL is assumed, so skip it.

stdin: Given `COc1c(C)cc2c(C(C)C)cc(C(=O)O)c(O)c2c1O` , respond with its concentration at 10 min.
stdout: 28700
